Biological target: Human thrombin (Homo sapiens (Human), UniProt P00734)
Test: Thrombin protease activity inhibition assay (chromogenic substrate S-2238)
Assay type: biochemical
Conditions: 3 nM thrombin, 125 μM S-2238, 10 min pre-incubation, RT
IC50 reference

Some solved entries appear below for comparison.
{"columns": ["smiles.record", "parameter.measured", "recorded.result"],
 "data": [
  ["O=C(c1ccoc1)n1nc(-c2cccn(Cc3ccc(Cl)s3)c2=O)cc1NCc1ccc(Cl)s1", "IC50", "< 100 nM"],
  ["O=C(O)Cn1cccc(-c2cc(NCc3ccc(Cl)s3)[nH]n2)c1=O", "IC50", "10000 to 100000 nM"],
  ["O=C(c1ccoc1)n1nc(-c2cccn(Cc3cccc4ccccc34)c2=O)cc1NCc1ccc(Cl)s1", "IC50", "< 100 nM"]
]}

[in] Report IC50 for O=C(c1ccccc1)n1nc(-c2cccn(Cc3ccco3)c2=O)cc1NCc1ccc(Cl)s1 please.
[out] < 100 nM

###

Test: Pharmacokinetics in mice (i.v. and p.o.)
Format: in vivo, male CD-1 mice
Details: male, CD-1, mouse, in vivo, iv, 1 mg/kg
parameter.measured: Vd (L/kg)

Some solved entries appear below for comparison.
{"columns": ["molecule", "u", "Vd"],
 "data": [
  ["Cn1cccc(-c2cc(NCc3ccc(Cl)s3)n(C(=O)c3ccoc3)n2)c1=O [Cmpd 23]", "L/kg", 5],
  ["O=C(c1ccoc1)n1nc(-c2cccn(Cc3ccco3)c2=O)cc1NCc1ccc(Cl)s1 [Cmpd 26]", "L/kg", 5]
]}

A = O=C(c1ccoc1)n1nc(-c2ccc[nH]c2=O)cc1NCc1ccc(Cl)s1 [Cmpd 4]
B = O=C(c1ccoc1)n1nc(-c2cccn(Cc3ccccn3)c2=O)cc1NCc1ccc(Cl)s1 [Cmpd 25]
[in] Record comparison, field Vd: mark the lower of A and B . Mark your selection by writing its label.
[out] B

###

IC50 reference
Biological target: Human KLKB1 (Homo sapiens (Human), UniProt P03952)
Sequence (P03952 391-638 limits assumed): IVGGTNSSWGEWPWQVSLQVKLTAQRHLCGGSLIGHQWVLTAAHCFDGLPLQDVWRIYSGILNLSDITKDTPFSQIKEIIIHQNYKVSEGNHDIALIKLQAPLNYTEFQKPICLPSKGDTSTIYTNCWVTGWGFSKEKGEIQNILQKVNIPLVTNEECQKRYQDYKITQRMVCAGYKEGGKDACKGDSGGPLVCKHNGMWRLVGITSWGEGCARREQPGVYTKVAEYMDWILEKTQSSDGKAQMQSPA
Sequence (P03952 20-390 partner limits assumed): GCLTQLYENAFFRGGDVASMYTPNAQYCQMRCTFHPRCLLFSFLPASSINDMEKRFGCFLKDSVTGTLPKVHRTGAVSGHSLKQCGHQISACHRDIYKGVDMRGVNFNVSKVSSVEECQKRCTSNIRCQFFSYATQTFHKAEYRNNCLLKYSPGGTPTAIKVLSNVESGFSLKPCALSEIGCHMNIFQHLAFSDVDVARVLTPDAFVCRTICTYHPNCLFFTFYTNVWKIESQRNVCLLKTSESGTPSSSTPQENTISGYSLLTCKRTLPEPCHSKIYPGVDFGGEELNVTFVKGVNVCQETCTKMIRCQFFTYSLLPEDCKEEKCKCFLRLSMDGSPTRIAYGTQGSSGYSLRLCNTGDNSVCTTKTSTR
Test: KLKB1 kallikrein activity inhibition assay (chromogenic substrate S-2302)
Format: biochemical
Conditions: Table B

{"columns": ["smiles.record", "parameter.measured", "recorded.result"],
 "data": [
  ["COCC(C)(C)C(=O)n1nc(-c2cccn(Cc3cccnc3)c2=O)cc1NCc1ccc(Cl)s1", "IC50", "10000 to 100000 nM"],
  ["O=C(c1ccsc1)n1nc(-c2ccccn2)cc1NCc1ccc(Cl)s1", "IC50", "100 to 1000 nM"],
  ["O=C(c1cccc2c1OCCO2)n1nc(-c2cccn(Cc3ccccn3)c2=O)cc1NCc1ccc(Cl)s1", "IC50", "100 to 1000 nM"],
  ["O=C(c1ccoc1)n1nc(-c2cccn(Cc3cccs3)c2=O)cc1NCc1ccc(Cl)s1", "IC50", "1000 to 10000 nM"]
]}

Next compound, please.
[in] Record Nc1ccccc1C(=O)n1nc(-c2ncccc2F)cc1NCc1ccc(Cl)s1 : what is its IC50 with Human KLKB1 (Homo sapiens (Human), UniProt P03952)?
[out] 1000 to 10000 nM

###

Target: Human KLKB1 (Homo sapiens (Human))
Experiment: KLKB1 kallikrein activity inhibition assay (chromogenic substrate S-2302)
Type: biochemical
Settings: Table B
parameter.measured: IC50

Some solved entries appear below for comparison.
{"columns": ["smiles.record", "IC50"],
 "data": [
  ["COCCn1cccc(-c2cc(NCc3ccc(Cl)s3)n(C(=O)c3ccc(N4CCOCC4)cc3)n2)c1=O", "1 to 10 µM"],
  ["O=C(c1ccco1)n1nc(-c2ccc[nH]c2=O)cc1NCc1ccccc1", "10 to 100 µM"],
  ["COCC(C)(C)C(=O)n1nc(-c2cccn(Cc3cccnn3)c2=O)cc1NCc1ccc(Cl)s1", "1 to 10 µM"],
  ["COc1ccccc1C(=O)n1nc(-c2cccn(Cc3cccnc3)c2=O)cc1NCc1ccc(Cl)s1", "0.1 to 1 µM"],
  ["O=C(c1ccccc1Cl)n1nc(-c2cccn(Cc3cccnc3)c2=O)cc1NCc1ccc(Cl)s1", "< 0.1 µM"]
]}

Next compound, please.
[in] Report IC50 for CC(C)(C)OC(=O)N1CCC(c2cc(NCc3ccc(Cl)s3)n(C(=O)c3ccsc3)n2)CC1 please.
[out] > 100 µM
